- Tested on: UO-31 renal
- EXPERIMENTAL_PROTOCOL: NCI-60 one-dose screen, 48 h
- TEST_PARAMETERS: 10 µM
Compounds without any hit were thinned out: in the full panel of roughly 83,000, 20% have a hit. Active and inactive are the calls of the source. How the source made its calls: active means growth percent below 10; inactive means the rest.
Outcome codes: t for active, f for inactive

INSERT INTO results (compound, assigned_category) VALUES
  ('CCC(C)S(=O)(=O)c1oc(-c2ccc(C)cc2)nc1S(=O)(=O)c1ccccc1 (configuration not stated)', 't'),
  ('CC(=O)c1cc(C(=O)N2c3ccccc3Sc3ccccc32)n2ccc(C)cc12', 'f'),
  ('N#Cc1ccc(-c2nn(-c3ccc(C(=O)O)cc3)cc2CNc2cc(Cl)cc(Cl)c2)cc1', 'f'),
  ('O=C(Nc1cc(Cl)cc(Cl)c1)Nc1cc(Cl)cc(Cl)c1', 't'),
  ('N#Cc1c(NC(=O)c2ccc(C(F)(F)F)cc2)sc2c1CCC(O)=C2', 'f'),
  ('C/C(=N\N=C\c1ccc(Cl)c([N+](=O)[O-])c1)c1ccc2c(c1)Nc1ccccc1S2', 'f'),
  ('O=C(Nc1nc2ccc([N+](=O)[O-])cc2s1)Nc1cc(Cl)ccc1I', 't'),
  ('O=C(NO)c1ccc(-c2nc3ccc4[nH]ncc4c3c3c2CCCC3)cc1', 't'),
  ('COC(=O)C[C@](O)(CCCC(C)(C)O)C(=O)O[C@H]1C(OC)=C[C@@]23CCC(=O)N2CCc2cc4c(cc2[C@@H]13)OCO4', 'f'),
  ('COc1cc(/C=N/NC(=O)c2ccc3nc(-c4ccc(Cl)cc4)[nH]c3c2)cc(OC)c1OC', 'f'),
  ('Cc1cc2c(c(O)c1Br)-c1ncoc1C(=O)[C@]1(C)CC[C@H](C(C)C)[C@H]21', 'f'),
  ('Cc1cc(=O)oc2cc(OCCCCOc3ccc(/C=C/C(=O)Nc4ccccc4[N+](=O)[O-])cc3)ccc12', 'f'),
  ('COc1ccc(NC(=O)Cn2c(/C=C/c3ccc(N(C)C)cc3)nc3ccccc3c2=O)cc1', 't'),
  ('O=C(CNc1nc(-c2ccccc2)cs1)Nc1ccc([N+](=O)[O-])cc1Cl', 'f'),
  ('COc1cc(/C=C/C(=O)c2cc(OC)c(OC)c(OC)c2)ccc1Oc1nc(Nc2ccc(F)cc2)nc(N(C)C)n1', 't'),
  ('Cc1cc(C)nc(NS(=O)(=O)c2ccc(N/C(N)=N/c3nccc(-c4ccccc4)n3)cc2)n1', 'f'),
  ('CC(=O)Nc1ccc(-n2cnc3cc(-c4ccc(NS(C)(=O)=O)cc4)ccc32)cc1', 'f'),
  ('COc1ccc(/C(CSc2nnc(-c3c[nH]c4ccccc34)n2-c2ccccc2)=N/O)cc1', 'f'),
  ('O=c1[nH][nH]c(Nc2ccccc2)c1N=Nc1ccc(F)cc1', 'f'),
  ('O=C1NC(=NC23CC4CC(CC(C4)C2)C3)N/C1=C\c1ccc2ncoc2c1', 't'),
  ('Cc1ccc(-c2nc(Nc3ccc(C)c(S(N)(=O)=O)c3)c3ccccc3n2)cc1', 'f'),
  ('C=C1CCC2C3(C)COC(c4cccc(F)c4)OC3CCC2(C)C1CC(O)C1=CCOC1=O (configuration not stated)', 'f'),
  ('Cc1ccc(/C=C/C(=O)c2ccc(NC(=O)CSc3nnc(-c4c[nH]c5ccccc45)n3-c3ccccc3)cc2)c(C)c1', 'f'),
  ('CCCn1c(O)c(N=Nc2nc(-c3cc4ccccc4oc3=O)cs2)c2cc(Br)ccc21', 'f'),
  ('NS(=O)(=O)c1ccc(NC(=O)CSc2ccc(-c3ccc(Cl)cc3)nn2)c(Br)c1', 'f'),
  ('O=C(Nc1ccc(F)c(Cl)c1)c1cc(-c2ccc(F)cc2F)ccc1O', 't'),
  ('CNCc1cccc2c1OCCCCCC[C@@](C)(O)CC1(CC1)S(=O)(=O)c1ccc(cc1)-c1cnc(N)c(n1)C(=O)N2', 't'),
  ('CCOC(=O)C1=C(N)N(c2ccc(C)cc2)C2=C(C(=O)CC(C)(C)C2)C1c1ccccc1OC (configuration not stated)', 'f'),
  ('CC1CC(c2ccc(N(C)C)cc2)=NN1c1nc(O)c(C2=c3cc(Br)ccc3=NC2=O)s1 (configuration not stated)', 'f'),
  ('CCCn1c(=O)c2[nH]c(-c3ccc(OCc4nc5ccccc5[nH]4)cc3)nc2n(CCC)c1=O', 'f'),
  ('O=C(c1ccc(-n2c(=O)[nH]c3ccccc3c2=O)cc1)N1CCOCC1', 'f'),
  ('CN(C(=O)c1ccc(C(F)(F)F)cc1C(F)(F)F)c1sc2c(c1C#N)CCC(=O)C2', 'f'),
  ('O=c1cc(-c2ccccc2)oc2cc(OCCCCNCc3ccccc3)cc(O)c12', 'f'),
  ('Cc1ccc(C(C)C)cc1NC(=O)c1ccccc1O', 'f'),
  ('COc1ccccc1C(=O)NNC(=O)CSc1nc2c(c(=O)[nH]1)CCCC2', 'f'),
  ('CCCCCCCCCCCCCCCCCCCC(=O)NCCc1c[nH]c2ccc(OC(=O)CCCC(=O)OCCOOCCOOCCOOCCOOCCOOCCOOCCOOCCOOCCOOCCOOCCOOCCOC)cc12', 'f'),
  ('O=S(=O)(Nc1ncccn1)c1ccc(-n2c(-c3ccccc3)nc(-c3ccccc3)c2-c2ccccc2)cc1', 'f');

---

Entries and their measured growth follow.
- System: COLO 205 colon
- EXPERIMENTAL_PROTOCOL: NCI-60 one-dose screen, 48 h (100 = growth as untreated, 0 = no growth, -100 = all killed)
- TEST_PARAMETERS: 10 µM
- Method: Cells are grown in 96 well plates and exposed to the test compound for 48 hours. Compounds are tested at a single concentration, which is 10^-5 M for most compounds. The reported endpoint is percent growth (GI% or GIPRCNT), where numbers from 0 - 100% represent growth inhibition, and numbers from -100% - 0 represent cell death. For example, a value of 40 represents 60% growth inhibition. A value of 0 means no net growth occurred over the course of the experiment. […]
About 83,000 compounds went through this panel and 20% of them were active in at least one assay; those are over-represented in the sample as a whole.
MEASURED_PARAMETER: growth (%)

INSERT INTO measurements (compound, measurement) VALUES
  ('CC(=C(c1ccc(OCCCN(C)C)cc1)c1ccc(OCCCN(C)C)cc1)c1ccccc1', -85.9),
  ('COc1ccc([C@H]2C(C(=O)c3ccc(Cl)cc3)C3(N[C@@H]2c2ccccc2)C(=O)Nc2ccc(Br)cc23)cc1 (some centres undefined)', -92),
  ('CCCSc1nc(NC2CC2)c(C#N)c(-c2ccc(OC)cc2)n1', 134),
  ('O=C1Nc2cc(Cl)ccc2/C1=C/c1ccc(OCc2ccc(Br)cc2F)cc1', -43),
  ('COc1ccc(C2N(c3ccc(Br)cc3)N=C(C(C)=O)N2[C@H]2[C@H](OC(C)=O)O[C@H](COC(C)=O)[C@@H](OC(C)=O)[C@@H]2OC(C)=O)cc1 (some centres undefined)', 88.1),
  ('O=c1c2ccccc2nc(COc2ccccc2)n1/N=C/c1ccc(N2CCOCC2)cc1', 80.8),
  ('CC1=N/C(=C\c2ccc(N(C)C)cc2)C(=O)N1CCc1ccc(S(N)(=O)=O)cc1', 113),
  ('CCCn1c(=O)c2[nH]c(-c3ccc(OCc4nc5ccccc5[nH]4)cc3)nc2n(CCC)c1=O', 89.1),
  ('COc1ccc2nc(Cl)c(-c3cc(-c4ccccc4)nc(=S)[nH]3)cc2c1', 72.6);

---

- System: K-562 leukemia
- EXPERIMENTAL_PROTOCOL: NCI-60 one-dose screen, 48 h (100 = growth as untreated, 0 = no growth, -100 = all killed)
- TEST_PARAMETERS: 10 µM
This is part of a sample that, as a whole, favours compounds with a hit. Of some 83,000 tested, about 20% had one in any assay.
Decide using growth: a value greater than or equal to 20% is satisfied, a smaller one is not satisfied.

INSERT INTO assay_data (molecule, assigned_category) VALUES
  ('O=C(CN1CCN(c2ncnc3c2cnn3-c2ccccc2)CC1)Nc1nncs1', 'not satisfied'),
  ('COc1cc(/C=N/NC(=O)c2ccc3nc(-c4ccc(Cl)cc4)[nH]c3c2)cc(OC)c1OC', 'not satisfied'),
  ('COc1cc2oc(-c3cccc(C(=O)Nc4ccc(Cl)cc4)c3)cc(=O)c2c(OCCNC(=O)CNC(=O)OC(C)(C)C)c1OC', 'satisfied'),
  ('CN1CCN(Cc2ccc(C(=O)Nc3cccc(Nc4ccc5c(O)cccc5n4)c3)cc2C(F)(F)F)CC1', 'not satisfied'),
  ('CC(=O)Nc1ccc(-c2cn(-c3cccc(C(=O)Nc4cccc(OC(F)(F)F)c4)c3)nn2)cn1', 'satisfied'),
  ('CC(=O)C1=C(C)NC(SCC(=O)Nc2ccc(S(=O)(=O)Nc3cc(C)on3)cc2)=NC1c1ccccc1 (configuration not stated)', 'satisfied'),
  ('COc1ccccc1C(=O)NNC(=O)CSc1nc2c(c(=O)[nH]1)CCCC2', 'satisfied'),
  ('COc1cc2c(cc1OC)/C(=C\c1sc(Nc3ccc(O)cc3)nc1O)C(C(=O)O)=N2', 'not satisfied'),
  ('Cc1noc2c(Cc3ccc([N+](=O)[O-])cc3)nn(CC(=O)N/N=C/c3ccc(Cl)cc3)c(=O)c12', 'satisfied'),
  ('O=C1Nc2ccc(F)cc2/C1=C/c1cccc(OCc2ccccn2)c1', 'not satisfied'),
  ('CCOc1ccc(/C=N/NC(=O)Cn2nc(Cc3ccc([N+](=O)[O-])cc3)c3onc(C)c3c2=O)cc1', 'satisfied'),
  ('Cc1cc(=O)oc2cc(OCCCCOc3ccc(/C=C/C(=O)Nc4ccccc4[N+](=O)[O-])cc3)ccc12', 'satisfied'),
  ('COc1ccc(NC(=O)Cn2c(/C=C/c3ccc(N(C)C)cc3)nc3ccccc3c2=O)cc1', 'satisfied'),
  ('COC[C@@H](CC(C)C)N=C1NC(=O)/C(=C/c2ccc3ncoc3c2)N1', 'not satisfied'),
  ('COc1ccc(C(=O)Nc2ccc(-c3ccc4c(c3)NC(=O)/C4=C\c3ccc[nH]3)cc2)cc1', 'satisfied'),
  ('COc1ccc2[nH]c(=O)c(CSc3nccc(-c4ccc(Cl)cc4)n3)cc2c1', 'satisfied'),
  ('O=C(c1ccc(O)cc1)C1[C@H](c2ccc(Br)cc2)[C@@H](c2ccccc2)NC12C(=O)Nc1ccc(Br)cc12 (some centres not stated)', 'not satisfied'),
  ('O=c1oc2ccc(-c3ccc(F)cc3F)cc2c(=O)n1-c1ccc(Cl)c(C(F)(F)F)c1', 'not satisfied'),
  ('C=C1CCC2C3(C)COC(c4c(F)cccc4F)OC3CCC2(C)C1CC(O)C1=CCOC1=O (configuration not stated)', 'satisfied'),
  ('Nc1nc(Nc2ccc(Cl)cc2)n(Cc2cccc(Br)c2)n1', 'not satisfied'),
  ('O=C(CSc1ccc(-c2ccc(Cl)cc2)nn1)Nc1ccc(Cl)c(C(F)(F)F)c1', 'not satisfied'),
  ('CN1CCc2c(sc3ncnc(N/N=C/c4ccc5ccccc5c4)c23)C1', 'not satisfied'),
  ('Cc1cc(C(F)(F)F)ccc1C(=O)Nc1sc2c(c1C#N)CCC(=O)C2', 'not satisfied'),
  ('CC(C)CCSc1nc(NC2CC2)c(C#N)c(-c2ccc(C(C)C)cc2)n1', 'satisfied'),
  ('C=CCn1c(SCC(=O)Nc2ccc(C(=O)/C=C/c3ccccc3)cc2)nnc1-c1c[nH]c2ccccc12', 'not satisfied'),
  ('O=C(N/N=C/c1ccc(-c2cccc([N+](=O)[O-])c2)o1)c1[nH]c2ccc(Br)cc2c1-c1ccccc1', 'not satisfied'),
  ('O=C(CSc1nnc(-c2c[nH]c3ccccc23)n1-c1ccccc1)Nc1ccc(C(=O)/C=C/c2ccccc2Cl)cc1', 'satisfied'),
  ('CO[C@@H]1CSS[C@H]1Cn1nc(-c2ccc(Oc3ccccc3)cc2)c2c(N)ncnc21', 'not satisfied'),
  ('CC1=C(C(=O)OC(C)C)C(c2ccc(O)cc2)NC(=S)N1 (configuration not stated)', 'satisfied'),
  ('O=C(c1ccc(Cl)cc1)C1[C@H](c2ccc(Br)cc2)[C@@H](c2ccccc2)NC12C(=O)Nc1ccc(Cl)cc12 (some centres not stated)', 'not satisfied'),
  ('CN(C)c1nc(NCCNS(=O)(=O)c2ccc(C(=O)/C=C/c3ccccc3)cc2)nc(Nc2ccc(F)cc2)n1', 'not satisfied'),
  ('O=C(CSc1nnc(-c2ccc3nc(-c4ccccc4)[nH]c3c2)o1)Nc1ccc(Br)cc1', 'not satisfied'),
  ('S=c1nc(-c2ccccc2)cc(-c2cc3ccccc3nc2Cl)[nH]1', 'not satisfied'),
  ('COc1cccc2nc(Nc3ccc(F)c(NC(=O)c4ccc(CN5CCN(C)CC5)c(C(F)(F)F)c4)c3)ccc12', 'not satisfied'),
  ('CCOC(=O)C1=C(N)N(c2ccc(C)cc2)C2=C(C(=O)CC(C)(C)C2)C1c1ccccc1OC (configuration not stated)', 'satisfied'),
  ('COc1csc(/C=N/NC(=O)c2[nH]c3ccc(Br)cc3c2-c2ccccc2)c1', 'not satisfied');
